organism: Rattus norvegicus; assay: Antioxidant activity in Wistar albino rat assessed as reduced glutathione activity; assay type: functional, organism-based; details: Rattus norvegicus, Wistar albino; read-out: EC50
measured-property: EC50 (µg/mL)

Field: example entries. Status: answers known.
# molecule, measured-property, quantitative-result
measured = [
    ("CCOC(=O)C(C)NP1(=S)Oc2ccccc2CN1c1ccc(N2Cc3ccccc3OP2(=S)NC(C)C(=O)OCC)cc1 (configuration not stated)", "EC50", 2.68),
    ("COC(=O)C(Cc1c[nH]c2ccccc12)NP1(=S)Oc2ccccc2CN1c1ccc(N2Cc3ccccc3OP2(=S)NC(Cc2c[nH]c3ccccc23)C(=O)OC)cc1 (configuration not stated)", "EC50", 1.45),
    ("CCOC(=O)C1c2ccccc2CN1P1(=S)Oc2ccccc2CN1c1ccc(N2Cc3ccccc3OP2(=S)N2Cc3ccccc3C2C(=O)OCC)cc1 (configuration not stated)", "EC50", 1.49),
]

[P] COC(=O)C(NP1(=S)Oc2ccccc2CN1c1ccc(N2Cc3ccccc3OP2(=S)NC(C(=O)OC)C(C)C)cc1)C(C)C (configuration not stated)
[Q] COC(=O)C(Cc1ccccc1)NP1(=S)Oc2ccccc2CN1c1ccc(N2Cc3ccccc3OP2(=S)NC(Cc2ccccc2)C(=O)OC)cc1 (configuration not stated)
[R] O=C1O[C@H]([C@@H](O)CO)C(O)=C1O
### Prompt Parameters: sort_field (EC50), sort_dir (desc). State the ranking by listing the labels in the requested order.
### Response P, Q, R

* * *

Below is a list of entries, each paired with its recorded Activity value.
species on record: Rattus norvegicus; experiment: Antioxidant activity in Wistar albino rat assessed as superoxide dismutase level; format: functional
Kindly answer with a numeric value in µg/mL, unit omitted.

# compound, unit-of-measure, Activity
rows = [
    ("CCOC(=O)C(NP1(=S)Oc2ccccc2CN1c1ccc(N2Cc3ccccc3OP2(=S)NC(C(=O)OCC)c2ccccc2)cc1)c1ccccc1 (configuration not stated)", "µg/mL", 29.31),
    ("Oc1ccccc1CNc1ccc(NCc2ccccc2O)cc1", "µg/mL", 26.27),
    ("COC(=O)C(NP1(=S)Oc2ccccc2CN1c1ccc(N2Cc3ccccc3OP2(=S)NC(C(=O)OC)C(C)C)cc1)C(C)C (configuration not stated)", "µg/mL", 27.86),
]

For COC(=O)C(Cc1c[nH]cn1)NP1(=S)Oc2ccccc2CN1c1ccc(N2Cc3ccccc3OP2(=S)NC(Cc2c[nH]cn2)C(=O)OC)cc1 (configuration not stated) the compound record lists Activity as 31.55

For COC(=O)C(C)NP1(=S)Oc2ccccc2CN1c1ccc(N2Cc3ccccc3OP2(=S)NC(C)C(=O)OC)cc1 (configuration not stated) the compound record lists Activity as 27.02

For COC(=O)C(Cc1c[nH]c2ccccc12)NP1(=S)Oc2ccccc2CN1c1ccc(N2Cc3ccccc3OP2(=S)NC(Cc2c[nH]c3ccccc23)C(=O)OC)cc1 (configuration not stated) the compound record lists Activity as 30.29

For CCCC(NP1(=S)Oc2ccccc2CN1c1ccc(N2Cc3ccccc3OP2(=S)NC(CCC)C(=O)OC)cc1)C(=O)OC (configuration not stated) the compound record lists Activity as 27.8

* * *

species: Rattus norvegicus; experiment: Antioxidant activity in Wistar albino rat assessed as inhibition of catalase activity; assay type: functional, organism-based; conditions: Rattus norvegicus, Wistar albino; read-out: EC50
measured-property: EC50 (µg/mL)

# molecule, quantitative-result
measured = [
    ("CCOC(=O)C(NP1(=S)Oc2ccccc2CN1c1ccc(N2Cc3ccccc3OP2(=S)NC(C(=O)OCC)c2ccccc2)cc1)c1ccccc1 (stereo not drawn)", 2.98),
]

[a] COC(=O)C(Cc1c[nH]c2ccccc12)NP1(=S)Oc2ccccc2CN1c1ccc(N2Cc3ccccc3OP2(=S)NC(Cc2c[nH]c3ccccc23)C(=O)OC)cc1 (stereo not drawn)
[b] CCOC(=O)C(C)NP1(=S)Oc2ccccc2CN1c1ccc(N2Cc3ccccc3OP2(=S)NC(C)C(=O)OCC)cc1 (stereo not drawn)
[c] Oc1ccccc1CNc1ccc(NCc2ccccc2O)cc1
[d] O=C1O[C@H]([C@@H](O)CO)C(O)=C1O [ASCORBIC ACID]
### Prompt Parameters: sort_field (EC50), sort_dir (desc). State the ranking by listing the labels in the requested order.
### Response c, b, a, d
